biological target: VEGFR-2 (Homo sapiens)
Sequence (P35968 20-1356): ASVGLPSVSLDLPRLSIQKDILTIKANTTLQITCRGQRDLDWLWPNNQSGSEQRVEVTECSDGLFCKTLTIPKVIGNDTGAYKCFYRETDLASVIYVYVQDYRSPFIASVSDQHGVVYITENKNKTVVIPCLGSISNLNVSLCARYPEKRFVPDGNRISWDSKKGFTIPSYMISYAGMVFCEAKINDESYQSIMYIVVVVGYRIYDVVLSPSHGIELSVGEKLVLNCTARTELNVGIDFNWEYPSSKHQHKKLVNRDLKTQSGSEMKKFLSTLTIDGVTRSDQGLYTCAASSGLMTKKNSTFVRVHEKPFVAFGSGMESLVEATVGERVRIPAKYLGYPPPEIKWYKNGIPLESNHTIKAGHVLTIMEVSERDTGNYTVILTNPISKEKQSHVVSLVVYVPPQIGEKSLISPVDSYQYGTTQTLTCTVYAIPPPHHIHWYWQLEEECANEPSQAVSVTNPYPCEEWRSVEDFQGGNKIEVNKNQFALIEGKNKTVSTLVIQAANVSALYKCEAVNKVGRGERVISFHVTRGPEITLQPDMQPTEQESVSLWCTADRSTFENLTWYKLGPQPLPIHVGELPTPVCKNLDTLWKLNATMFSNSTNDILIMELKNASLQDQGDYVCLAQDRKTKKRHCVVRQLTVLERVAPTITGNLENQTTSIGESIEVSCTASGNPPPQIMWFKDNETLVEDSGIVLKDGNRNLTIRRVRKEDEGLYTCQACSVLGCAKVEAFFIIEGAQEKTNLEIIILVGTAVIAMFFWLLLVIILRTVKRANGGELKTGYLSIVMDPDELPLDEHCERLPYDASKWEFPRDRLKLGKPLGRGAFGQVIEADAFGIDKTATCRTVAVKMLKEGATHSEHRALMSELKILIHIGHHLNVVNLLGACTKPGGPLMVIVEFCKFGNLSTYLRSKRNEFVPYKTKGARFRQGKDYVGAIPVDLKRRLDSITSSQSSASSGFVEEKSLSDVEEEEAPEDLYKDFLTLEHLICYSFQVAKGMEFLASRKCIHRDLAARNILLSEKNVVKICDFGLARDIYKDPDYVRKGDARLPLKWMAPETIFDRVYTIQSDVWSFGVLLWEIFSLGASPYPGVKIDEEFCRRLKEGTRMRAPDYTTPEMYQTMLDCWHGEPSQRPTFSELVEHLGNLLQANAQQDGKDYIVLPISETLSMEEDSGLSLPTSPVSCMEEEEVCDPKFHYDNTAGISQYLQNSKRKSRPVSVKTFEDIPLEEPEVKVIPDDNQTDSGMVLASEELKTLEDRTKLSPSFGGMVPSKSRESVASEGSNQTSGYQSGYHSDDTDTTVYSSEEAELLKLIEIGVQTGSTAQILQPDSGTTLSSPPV
pIC50: −log10 of the molar value.
QUANTITY_KIND: pIC50

COc1cc2nc(-c3ccc(-c4ccco4)cc3)cc(OCCCN3CCN(C)CC3)c2cc1OC [8a]    5.20
COc1ccc(-c2ccc3nc(-c4ccc(F)cc4)cc(OCCCN4CCOCC4)c3c2)cc1 [20d]    6.53
COc1cc2nc(-c3ccc(Cl)cc3)cc(OCCCn3ccnc3)c2cc1OC [6e]    5.42

I. Fc1ccc(-c2cc(OCCCn3ccnc3)c3cc(Br)ccc3n2)cc1 [16c]
II. COc1cc2nc(-c3ccc(C(F)(F)F)cc3)cc(OCCCn3ccnc3)c2cc1OC [6j]
[Q] Short answer wanted: higher pIC50, I or II ? Give the chosen item's label as your response.
[A] II

---

QUANTITY_KIND: melting point

COc1cc2nc(-c3ccc(C)cc3)cc(OCCCNC3CCN(C)CC3)c2cc1OC [6m]    66 to 68 °C

[Q] // lookup melting point for COc1cc2nc(-c3ccc(C(F)(F)F)cc3)cc(OCCCn3ccnc3)c2cc1OC [6j]
[A] 217 to 219 °C

[Q] What about this compound? COc1cc2nc(-c3ccc(Cl)cc3)cc(OCCCNC3CCCCC3)c2cc1OC [6b]
[A] 118 to 120 °C

[Q] Next record, please: COc1ccc(-c2ccc3nc(-c4ccc(Cl)cc4)cc(OCCCN4CCOCC4)c3c2)cc1 [20b]
[A] 173 to 175 °C

[Q] And Clc1ccc(-c2cc(OCCCN3CCOCC3)c3cc(Br)ccc3n2)cc1 [16b] ?
[A] 137 to 139 °C

[Q] Now try Clc1ccc(-c2cc(OCCCn3ccnc3)c3cc4c(cc3n2)OCO4)cc1 [12a] .
[A] 146 to 148 °C

[Q] And then COc1cc2nc(-c3ccc(C)cc3)cc(OCCCNC3CCCCC3)c2cc1OC [6l] , what is it?
[A] 126 to 128 °C

[Q] Please answer likewise for COc1cc2nc(-c3ccc(-c4ccco4)cc3)cc(OCCCN3CCN(C)CC3)c2cc1OC [8a]
[A] 135 to 137 °C

[Q] Same again, this time with COc1cc2nc(-c3ccc(C)cc3)cc(OCCCNCC3CCCO3)c2cc1OC (stereo not shown) [6n]
[A] 60 to 62 °C

---

Entries with their measured IC50, system c-Src (Homo sapiens):
QUANTITY_KIND: IC50 (nM)

FC(F)(F)c1ccc(-c2cc(OCCCNC3CCCCC3)c3ccccc3n2)cc1 [10b]    7780
Clc1ccc(-c2cc(OCCCn3ccnc3)c3cc4c(cc3n2)OCO4)cc1 [12a]    55.3
Clc1ccc(-c2cc(OCCCN3CCOCC3)c3cc(-c4ccco4)ccc3n2)cc1 [20f]    92.1
COc1ccc(-c2ccc3nc(-c4ccc(F)cc4)cc(OCCCn4ccnc4)c3c2)cc1 [20c]    9050
Fc1ccc(-c2cc(OCCCN3CCOCC3)c3cc(Br)ccc3n2)cc1 [16d]    3900

A. COc1cc2nc(-c3ccc(C(F)(F)F)cc3)cc(OCCCN3CCN(C)CC3)c2cc1OC
B. Clc1ccc(-c2cc(OCCCn3ccnc3)c3cc(-c4ccco4)ccc3n2)cc1 [20e]
[Q] Select one: A or B . Criterion: greater recorded IC50. Lab log: write the label of the selected item as the result.
[A] A
(A: 3940 nM, B: 138 nM)

---

target: FRK (Homo sapiens, UniProt P42685)
Sequence (P42685 whole entry): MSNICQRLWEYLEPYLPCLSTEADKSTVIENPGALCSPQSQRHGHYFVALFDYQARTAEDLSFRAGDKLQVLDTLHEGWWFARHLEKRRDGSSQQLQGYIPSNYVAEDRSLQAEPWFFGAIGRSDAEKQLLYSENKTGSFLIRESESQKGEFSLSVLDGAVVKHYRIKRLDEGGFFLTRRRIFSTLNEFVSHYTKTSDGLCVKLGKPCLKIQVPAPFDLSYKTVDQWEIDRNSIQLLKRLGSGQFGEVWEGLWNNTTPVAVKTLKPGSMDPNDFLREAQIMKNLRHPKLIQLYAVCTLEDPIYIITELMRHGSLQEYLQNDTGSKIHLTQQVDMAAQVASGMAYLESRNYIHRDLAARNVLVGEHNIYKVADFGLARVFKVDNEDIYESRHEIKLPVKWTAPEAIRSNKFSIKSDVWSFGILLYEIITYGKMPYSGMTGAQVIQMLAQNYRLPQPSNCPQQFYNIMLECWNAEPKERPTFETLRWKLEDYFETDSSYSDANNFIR
QUANTITY_KIND: IC50 (µM)

Here's what some known entries look like.
COc1ccc(-c2ccc3nc(-c4ccc(Cl)cc4)cc(OCCCN4CCOCC4)c3c2)cc1 [20b]    8.71
CN1CCN(CCCOc2cc(-c3ccc(C(F)(F)F)cc3)nc3ccccc23)CC1 [10a]    8.91
Clc1ccc(-c2cc(OCCCn3ccnc3)c3cc4c(cc3n2)OCO4)cc1 [12a]    0.734
Clc1ccc(-c2cc(OCCCN3CCOCC3)c3cc4c(cc3n2)OCO4)cc1 [12b]    1.13
COc1ccc(-c2ccc3nc(-c4ccc(F)cc4)cc(OCCCN4CCOCC4)c3c2)cc1 [20d]    0.133

P. Fc1ccc(-c2cc(OCCCn3ccnc3)c3cc(Br)ccc3n2)cc1 [16c]
Q. Clc1ccc(-c2cc(OCCCn3ccnc3)c3cc(-c4ccco4)ccc3n2)cc1 [20e]
[Q] Which record shows the lower IC50: the first, P , or the second, Q ? Write the label of whichever entry you select.
[A] Q
(Q: 0.216 µM, P: 6.67 µM)

---

tested on: MDMBA-231 breast cancer cell line; experiment: MTT antiproliferative assay, MDMBA-231; format: cell-based; details: 10 µM, 24 h
Parameter GI% MDMBA-231: see the listing below.
Answer with a number only, understood to be in %.

COc1cc2nc(-c3ccc(C)cc3)cc(OCCCNC3CCCCC3)c2cc1OC    38.36
COc1cc2nc(-c3ccc(-c4cccs4)cc3)cc(OCCCN3CCN(C)CC3)c2cc1OC    36.87

[Q] Need GI% MDMBA-231, item COc1cc2nc(-c3ccc(C(F)(F)F)cc3)cc(OCCCN3CCN(C)CC3)c2cc1OC
[A] 75.34

[Q] Request: FC(F)(F)c1ccc(-c2cc(OCCCn3ccnc3)c3cc4c(cc3n2)OCO4)cc1 [12c]
[A] 61.94

[Q] Please do the same for COc1ccc(-c2ccc3nc(-c4ccc(Cl)cc4)cc(OCCCN4CCOCC4)c3c2)cc1 [20b] as well.
[A] 48.31

---

Entries with their measured pIC50, system UniProt P04626:
pIC50: −log10 of the molar value.
QUANTITY_KIND: pIC50

Some solved entries appear below for comparison.
FC(F)(F)c1ccc(-c2cc(OCCCn3ccnc3)c3cc4c(cc3n2)OCO4)cc1 [12c]    6.77
CN1CCN(CCCOc2cc(-c3ccc(C(F)(F)F)cc3)nc3ccccc23)CC1 [10a]    5.99
COc1ccc(-c2ccc3nc(-c4ccc(F)cc4)cc(OCCCN4CCOCC4)c3c2)cc1 [20d]    5.75
Clc1ccc(-c2cc(OCCCN3CCOCC3)c3cc4c(cc3n2)OCO4)cc1 [12b]    7.56
Clc1ccc(-c2cc(OCCCn3ccnc3)c3cc4c(cc3n2)OCO4)cc1 [12a]    7.46

1. COc1ccc(-c2ccc3nc(-c4ccc(F)cc4)cc(OCCCn4ccnc4)c3c2)cc1 [20c]
2. COc1cc2nc(-c3ccc(C(F)(F)F)cc3)cc(OCCCN3CCN(C)CC3)c2cc1OC
[Q] Which shows the larger pIC50 value: 1 or 2 ? State the label of the item chosen.
[A] 2

I. COc1cc2nc(-c3ccc(C(F)(F)F)cc3)cc(OCCCNC3CCN(C)CC3)c2cc1OC
II. Fc1ccc(-c2cc(OCCCN3CCOCC3)c3cc(Br)ccc3n2)cc1 [16d]
[Q] Please let me know which one, I or II , has a lower measured pIC50 value. Choose, then provide that item's label.
[A] I
(I: 5.80, II: 6.45)

A. COc1cc2nc(-c3ccc(Cl)cc3)cc(OCCCN3CCN(C)CC3)c2cc1OC
B. Clc1ccc(-c2cc(OCCCn3ccnc3)c3cc(Br)ccc3n2)cc1 [16a]
[Q] Field: lower pIC50 | Options: A / B // return label of chosen record
[A] B
(B: 5.70, A: 5.91)

---

Please consider the recorded pIC50 for FAK (Homo sapiens, UniProt Q05397) in what follows.
pIC50: −log10 of the molar value.
QUANTITY_KIND: pIC50

Recorded pIC50, per entry:
Clc1ccc(-c2cc(OCCCn3ccnc3)c3cc4c(cc3n2)OCO4)cc1 [12a]    6.65
COc1ccc(-c2ccc3nc(-c4ccc(F)cc4)cc(OCCCn4ccnc4)c3c2)cc1 [20c]    7.04
Clc1ccc(-c2cc(OCCCN3CCOCC3)c3cc(-c4ccco4)ccc3n2)cc1 [20f]    7.81

1. Clc1ccc(-c2cc(OCCCn3ccnc3)c3cc(-c4ccco4)ccc3n2)cc1 [20e]
2. FC(F)(F)c1ccc(-c2cc(OCCCn3ccnc3)c3cc4c(cc3n2)OCO4)cc1 [12c]
[Q] Larger number for pIC50: 1 , or 2 ? Choose, then provide that item's label.
[A] 1
(1: 7.60, 2: 6.95)

A. Clc1ccc(-c2cc(OCCCn3ccnc3)c3cc(Br)ccc3n2)cc1 [16a]
B. COc1ccc(-c2ccc3nc(-c4ccc(F)cc4)cc(OCCCN4CCOCC4)c3c2)cc1 [20d]
[Q] Of the pair A and B , name the member with the lesser recorded pIC50. Identify your pick by its label.
[A] B
(B: 6.90, A: 7.36)

---

QUANTITY_KIND: melting point

Solved cases below.
COc1cc2nc(-c3ccc(Cl)cc3)cc(OCCCNC3CCN(C)CC3)c2cc1OC    124 to 126 °C
COc1cc2nc(-c3ccc(-c4cccs4)cc3)cc(OCCCN3CCN(C)CC3)c2cc1OC    155 to 157 °C
COc1cc2nc(-c3ccc(C)cc3)cc(OCCCn3ccnc3)c2cc1OC    203 to 205 °C

The record that follows has no melting point shown yet.
[Q] Recorded melting point for FC(F)(F)c1ccc(-c2cc(OCCCNC3CCCCC3)c3ccccc3n2)cc1 [10b] , please?
[A] 68 to 70 °C
